assay_conditions: Ebola virus entry assay, reporter ratio channel; Channel type: primary
Active and inactive are the calls of the source. The rule behind the calls is not given here.
Your response should consist of one outcome taken from label 1 = active, label 0 = inactive

Input: Please indicate how the test categorized CN(C)CCOC(c1ccccc1)c1ccc(Br)cc1 (configuration not stated) .
Output: label 1

Input: # lookup: test call for CCOC(=O)c1ncn2c1CN(C)C(=O)c1c(I)cccc1-2
Output: label 0

Input: Please state the recorded outcome for this molecule: C[C@H]1NCc2cc(-c3ccc4c(=O)c(C(=O)O)cn(C5CC5)c4c3OC(F)F)ccc21
Output: label 0

Input: Test call for this molecule, please: CN(C)C/C=C(/c1ccc(Br)cc1)c1cccnc1
Output: label 1

Input: How was CC(C)=C[C@@H]1[C@@H](C(=O)OCc2coc(Cc3ccccc3)c2)C1(C)C classified in this test?
Output: label 0

Input: So what was the verdict on CC(C)C[C@@H]1[C@H](c2ccccc2)OC(=O)N1CCCN1CCCCCC1 in this test?
Output: label 1

More entries:
Input: What classification did COCc1c(C(C)C)nc(C(C)C)c(/C=C/[C@@H](O)C[C@@H](O)CC(=O)O)c1-c1ccc(F)cc1 end up with in this test?
Output: label 0

Input: What did this assay record as the result for Cc1cccc(N(C)C(=S)Oc2ccc3ccccc3c2)c1 ?
Output: label 1

Input: How was C1CN2CCC1CC2 classified in this test?
Output: label 0

Input: Look up the recorded call for O=C(O)CCc1nc(-c2ccccc2)c(-c2ccccc2)o1 in this test.
Output: label 0

Input: Which result was noted for this molecule in the test: COc1cc2c(cc1OC)C(C(C(=O)N(CCc1ccc(OC)c(OC)c1OC)CCc1ccc(OC)c(OC)c1OC)c1ccccc1)=NCC2 (configuration not stated)
Output: label 1

Input: Test call for this molecule, please: CC(=O)OCC1=C(C(=O)O)N2C(=O)[C@@H](NC(=O)CSc3ccncc3)[C@H]2SC1
Output: label 0

Input: Write down the call the test reported for this molecule. Item: CC/C(=C(/CC)c1ccc(O)cc1)c1ccc(O)cc1
Output: label 0

Input: Hi, sorry to bother you, what did the test record for CCCCN(CCN(CCCC)C(=O)N1CCOCC1)C(=O)N1CCOCC1 ?
Output: label 0

Input: Check the results log: what was the call for C=CCOc1ccccc1OCC(O)CNC(C)C (configuration not stated) ?
Output: label 1

Input: Entry CCCCN1CCCC[C@H]1C(=O)Nc1c(C)cccc1C : call = ?
Output: label 1

Input: Which outcome did this test record for the molecule C[C@]12CC[C@H]3[C@@H](CCC4=CC(=O)CC[C@@H]43)[C@@H]1CC[C@@H]2O ?
Output: label 0

Input: Tell me the recorded outcome of this test for CC[C@H]1C[C@H]2[C@@H]3CCC4=CC(=O)CC[C@@H]4[C@H]3CC[C@]2(C)[C@H]1O .
Output: label 1

Input: I would be grateful if you could indicate the recorded call for CCN(CC)CCOc1ccc2c(c1)C(=O)c1cc(OCCN(CC)CC)ccc1-2 .
Output: label 1

Input: Look up the recorded call for O=C(N[C@@H]1N=C(c2ccccc2F)c2cccc3c2N(CC3)C1=O)c1cc2ccccc2[nH]1 in this test.
Output: label 1

Input: I would be grateful if you could indicate the recorded call for Sc1ccccc1Cl .
Output: label 0

Input: // outcome(item) with item = c1ccc2[nH]c(-c3cscn3)nc2c1
Output: label 0
